- Target Of Assay: T1, HLA-A*02:01 class I complex (conditional p*HLA*02:01, biotinylated heavy chain with beta2-microglobulin) (human, biotinylated heavy chain)
- T1 construct: UV-labile peptide p* is cleaved and exchanged for the test peptide; also called HLA 2.1
- Experimental Protocol: UV peptide exchange, HLA class I ELISA; high end of the group, member by Table 4
Observed Property: average relative binding (%)

- SMTCTYFPV (also called M213) [TP53_S127F7 mimic peptide SMTCTYFPV]: 80 to 88%
- CYVYYYSYLL (also called M100) [PTEN.R173C mutant peptide CYVYYYSYLL]: 33 to 38%
- LMVVGACGV (also called M062) [KRAS_G12C3 mimic peptide LMVVGACGV]: 41 to 49%

## Task Can you look up the measured average relative binding (%) of GLKDLLNPI (also called M080) [PIK3CA.E453K mutant peptide GLKDLLNPI] for me?
## Result 70 to 79%

## Task May I ask what average relative binding (%) has been recorded for NMDEYVHNL (also called M113) [SF3B1_R625H9 mimic peptide NMDEYVHNL] ?
## Result 50 to 58%
